Test system: SF-295 CNS
MEASUREMENT NOTES: NCI tumour cell line growth inhibition, 48 h
Entries and their TGI
MEASURE NAME: TGI

- COMPOUND: "O=C(O)C1C(C(=O)O)C23CC2(C(=O)O)C2(C(=O)O)CCC3=C3CCCC312 (stereo unspecified)"
  MEASURED ON: "SF-295 CNS"
  ENDPOINT VALUE: "20.8 µM"
- COMPOUND: "O=C1C2C(c3ccccc3)NC(c3ccccc3)C1C(c1ccccc1)NC2c1ccccc1 (stereo unspecified)"
  MEASURED ON: "SF-295 CNS"
  ENDPOINT VALUE: "> 100 µM"
- COMPOUND: "O=P1(c2ccccc2)C(c2ccccc2)=CC=C1c1ccccc1"
  MEASURED ON: "SF-295 CNS"
  ENDPOINT VALUE: "> 100 µM"
- COMPOUND: "COc1ccc(C(=O)/C=C/c2ccc3c(c2)OCO3)c(OCc2ccccc2)c1"
  MEASURED ON: "SF-295 CNS"
  ENDPOINT VALUE: "> 100 µM"
- COMPOUND: "COc1cc(/C=C2\\C(=O)N(c3ccccc3Cl)C(c3ccccc3)S2(=O)=O)cc(OC)c1OC (stereo unspecified)"
  MEASURED ON: "SF-295 CNS"
  ENDPOINT VALUE: "> 100 µM"
- COMPOUND: "COc1cc(Cl)cc(-c2nn(-c3cccc(NC(=O)Nc4cc(C(F)(F)F)cc(C(F)(F)F)c4)c3)cc2-c2ccncc2)c1"
  MEASURED ON: "SF-295 CNS"
  ENDPOINT VALUE: "2.25 µM"
- COMPOUND: "NCCN.NCCN.O=C([O-])CCl.O=C([O-])CCl.[Co+3].[O-][Cl+3]([O-])([O-])[O-]"
  MEASURED ON: "SF-295 CNS"
  ENDPOINT VALUE: "> 100 µM"
- COMPOUND: "CC(=O)N1C(NN(C)C)CCN1c1ccccc1 (stereo unspecified)"
  MEASURED ON: "SF-295 CNS"
  ENDPOINT VALUE: "> 10 µM"
- COMPOUND: "FC(F)(F)c1ccc(C#Cc2ccccc2C#Cc2ccccc2)cc1"
  MEASURED ON: "SF-295 CNS"
  ENDPOINT VALUE: "> 100 µM"
- COMPOUND: "Cc1cc(NCc2cc(Nc3ccnc4cc(Cl)ccc34)ccc2F)nc(N2CCN(C)CC2)n1"
  MEASURED ON: "SF-295 CNS"
  ENDPOINT VALUE: "2.55 µM"
- COMPOUND: "COc1ccc(S(=O)(=O)N/N=C/c2cc(I)cc([N+](=O)[O-])c2O)cc1OC"
  MEASURED ON: "SF-295 CNS"
  ENDPOINT VALUE: "> 100 µM"

###

Tested on: MDA-MB-231 breast
MEASUREMENT NOTES: NCI tumour cell line growth inhibition, 48 h

- ENTRY SMILES: "Nc1[nH]c(=S)c2c(N)n[nH]c2c1C(=O)Nc1ccccc1"
  TGI: "> 100 µM"
- ENTRY SMILES: "COc1ccc(C(=O)/C=C/c2ccc3c(c2)OCO3)c(OCc2ccccc2)c1"
  TGI: "> 100 µM"
- ENTRY SMILES: "O=C(O)c1cc(-c2ccncc2)nc2ccccc12"
  TGI: "> 100 µM"
